# TGT: JAK3 (Homo sapiens)
# Construct: purchased Thermo fisher PV3855
# TEST PROTOCOL: JAK3 biochemical assay (ADP-GLO Kinase Assay)
# EXPERIMENTAL CONTEXT: B*: testing performed in a first testing facility; read-out: JAK3 IC50 (nM) Relative, B*
Hi there, I'd appreciate the recorded IC50 for every entry that follows.

# annotated cases, reported IC50 shown
COc1cc2c(cc1Nc1ncc3cc(C#N)n(-c4ccccc4)c3n1)CN(C)CC2    500 to 1000 nM
COc1cc2c(cc1Nc1ncc(Cl)c(N3CC(C)(CC(=O)O)c4ccccc43)n1)CN(C)C2 (centres unmarked)    ≤ 100 nM
CNC(=O)C1CN(c2nc(Nc3cc4c(cc3OC)CCN(C)C4)ncc2Cl)c2ccccc21 (centres unmarked)    > 1000 nM
COc1cc2c(cc1Nc1ncc(Cl)c(N3CC(C)(C(N)=O)c4ccccc43)n1)CN(C)CC2 (centres unmarked)    ≤ 100 nM
COc1cc2c(cc1Nc1ncc(Cl)c(N3CC(C(=O)N(C)O)c4ccccc43)n1)CN(C)CC2 (centres unmarked)    > 1000 nM

Each molecule below has a recorded value; state its IC50.
1. COc1cc2c(cc1Nc1ncc(Cl)c(N3CCC4(COC4)C3)n1)CN(C)CC2
2. CCc1c[nH]c2ncc(-c3ccc(N)c(P(C)(C)=O)c3)cc12
3. CCc1c[nH]c2ncc(-c3ccc(CO)c(P(C)(C)=O)c3)cc12

Reply:
> 1000 nM
500 to 1000 nM
500 to 1000 nM

* * *

Exercise: state measured EC50 for each of the compounds provided.
# Test system: Human Pan T Cell (IL-2 release)
# TEST PROTOCOL: IL2 released by human pan T cell upon anti-CD3/anti-CD28 stimulation (ELISA)
# Format: cell-based
# EXPERIMENTAL CONTEXT: Homo sapiens, T-cell, IL-2 response, human pan T cells, calculated with GraphPad Prism

CN1CCc2cc(F)c(Nc3ncc(Cl)c(N4CC(C)(CC(=O)O)c5ccccc54)n3)cc2C1 (stereo not shown)    ≤ 100 nM

List EC50 for every entry below, keeping the order given.
1. COc1cc2c(cc1Nc1ncc(Cl)c(-n3cc(C(C)C(=O)O)c4ccccc43)n1)CN(C)CC2 (stereo not shown)
2. COc1cc2c(cc1Nc1ncc(Cl)c(-n3cc(CC#N)c4ccccc43)n1)CN(C)CC2
3. COc1cc2c(cc1Nc1ncc(Cl)c(N3CC(C)(CC(=O)O)c4ccccc43)n1)CN(C(C)C)CC2 (stereo not shown)
4. COc1nc2c(cc1Nc1ncc(Cl)c(N3CCc4ccccc43)n1)CN(C)CC2
5. COc1cc2c(cc1Nc1ncc(Cl)c(-c3cn(CC(=O)O)c4ccccc34)n1)CN(C)CC2
6. COc1cc2c(cc1Nc1ncc(Cl)c(-n3cc(C(=O)O)c4ccccc43)n1)CN(C)CC2

Reply:
1: 100 to 500 nM; 2: > 1000 nM; 3: ≤ 100 nM; 4: 100 to 500 nM; 5: > 1000 nM; 6: 500 to 1000 nM

The following compounds each have a reported value; give each one's EC50.
1. COc1cc2c(cc1Nc1ncc(Cl)c(N3CCc4ccccc43)n1)CN(CCO)CC2
2. COc1cc2c(cc1Nc1ncc(F)c(N3CC(C(=O)O)c4ccccc43)n1)CN(C)CC2 (stereo not shown)

Reply:
1. > 1000 nM
2. 100 to 500 nM

Provide reported EC50 for each item, in the same order as listed.
1. COc1cc2c(cc1Nc1ncc3ccn(-c4ccccn4)c3n1)CN(C)CC2
2. COc1cc2c(cc1Nc1ncc(Cl)c(N3CC(C)(C(=O)O)c4cc(F)ccc43)n1)CN(C)CC2 (stereo not shown)
3. COc1cc2c(cc1Nc1ncc(Cl)c(N3CCc4cc(Cl)ccc43)n1)CN(C)CC2
4. COc1cc2c(cc1Nc1ncc(Cl)c(N3CCc4ccc(F)cc43)n1)CN(C)CC2
5. COc1cc2c(cc1Nc1nccc(N3CC(C(=O)O)c4ccccc43)n1)CN(C)CC2 (stereo not shown)
6. COc1cc2c(cc1Nc1ncc(Cl)c(N3CCc4ccccc43)n1)CNCC2
7. COc1cc2c(cc1Nc1ncc(Cl)c(-n3cc(S(N)(=O)=O)c4ccccc43)n1)CN(C)CC2

Reply:
100 to 500 nM
≤ 100 nM
> 1000 nM
100 to 500 nM
> 1000 nM
100 to 500 nM
100 to 500 nM

* * *

Please provide measured IC50 for the entries that follow.
# TGT: HPK1 (Homo sapiens)
# Sequence (Q92918 whole entry): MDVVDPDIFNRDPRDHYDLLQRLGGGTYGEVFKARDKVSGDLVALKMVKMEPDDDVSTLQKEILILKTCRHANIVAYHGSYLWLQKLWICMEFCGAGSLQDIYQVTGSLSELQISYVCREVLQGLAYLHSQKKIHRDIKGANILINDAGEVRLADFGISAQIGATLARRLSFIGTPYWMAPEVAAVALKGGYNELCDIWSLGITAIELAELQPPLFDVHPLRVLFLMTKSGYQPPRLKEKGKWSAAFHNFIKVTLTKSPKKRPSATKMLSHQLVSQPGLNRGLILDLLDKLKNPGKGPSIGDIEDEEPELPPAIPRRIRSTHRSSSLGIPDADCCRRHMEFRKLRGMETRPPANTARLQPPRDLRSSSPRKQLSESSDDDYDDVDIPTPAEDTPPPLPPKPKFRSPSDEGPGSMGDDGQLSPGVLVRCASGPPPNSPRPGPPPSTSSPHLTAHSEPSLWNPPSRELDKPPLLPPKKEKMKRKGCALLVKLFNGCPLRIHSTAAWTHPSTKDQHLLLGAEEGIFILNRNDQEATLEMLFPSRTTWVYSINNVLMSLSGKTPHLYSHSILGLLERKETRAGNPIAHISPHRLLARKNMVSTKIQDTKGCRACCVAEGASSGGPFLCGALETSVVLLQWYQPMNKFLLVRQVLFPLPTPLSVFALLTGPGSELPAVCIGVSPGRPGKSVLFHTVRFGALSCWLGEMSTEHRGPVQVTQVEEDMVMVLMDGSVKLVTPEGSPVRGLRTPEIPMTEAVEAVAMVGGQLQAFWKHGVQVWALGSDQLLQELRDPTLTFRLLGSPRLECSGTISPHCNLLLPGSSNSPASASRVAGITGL
# TEST PROTOCOL: HPK1 biochemical assay (ADP-GLO Kinase Assay)
# EXPERIMENTAL CONTEXT: B*: testing performed in a first testing facility; read-out: HPK1 IC50 (nM) Relative, B*

Answered cases to consult:
COc1cc2c(cc1Nc1ncc(Cl)c(N3CCC4(COC4)C3)n1)CN(C)CC2    100 to 500 nM
CCc1c[nH]c2ncc(-c3ccc(NC(C)=O)c(P(C)(C)=O)c3)cc12    ≤ 100 nM
CCc1c[nH]c2ncc(-c3ccc(C(F)F)c(P(C)(C)=O)c3)cc12    100 to 500 nM

Provide IC50 for all items below, preserving their order.
1. COc1cc2c(cc1Nc1ncc3c(n1)n(-c1ccccc1)c(=O)n3C)CN(C)CC2
2. COC(=O)C1(C)CN(c2nc(Nc3cc4c(cc3OC)CCN(C)C4)ncc2Cl)c2ccccc21 (centres unmarked)
3. CNC(=O)Cc1cn(-c2nc(Nc3cc4c(cc3OC)CCN(C)C4)ncc2Cl)c2ccccc12
4. COc1nc2c(cc1Nc1ncc(Cl)c(N3CC(C)(CC(=O)O)c4ccccc43)n1)CN(C)CC2 (centres unmarked)
5. COc1cc2c(cc1Nc1nccc(N3CC(C(=O)O)c4ccccc43)n1)CN(C)CC2 (centres unmarked)

Reply:
100 to 500 nM
≤ 100 nM
≤ 100 nM
≤ 100 nM
≤ 100 nM

* * *

# TGT: JAK3 (Homo sapiens, UniProt P52333)
# Construct: purchased Thermo fisher PV3855
# Sequence (P52333 781-1124 limits assumed): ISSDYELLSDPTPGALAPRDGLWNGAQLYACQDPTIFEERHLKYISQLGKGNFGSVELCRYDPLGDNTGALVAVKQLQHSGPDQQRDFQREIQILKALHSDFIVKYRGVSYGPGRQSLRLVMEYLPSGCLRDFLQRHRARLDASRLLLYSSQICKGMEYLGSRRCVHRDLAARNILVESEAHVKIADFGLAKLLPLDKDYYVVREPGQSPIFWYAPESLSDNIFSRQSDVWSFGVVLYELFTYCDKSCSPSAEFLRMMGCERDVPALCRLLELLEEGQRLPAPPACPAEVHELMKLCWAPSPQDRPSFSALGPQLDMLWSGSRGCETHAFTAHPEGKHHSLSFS
# TEST PROTOCOL: JAK3 biochemical assay (ADP-GLO Kinase Assay)
# EXPERIMENTAL CONTEXT: ratio of JAK3 IC50 to HPK1 IC50; first testing facility
Would you mind telling me the reported JAKs/HPK1 IC50 Ratio, B* of each entry?

COc1cc2c(cc1Nc1ncc(C#N)c(N3CC(C(=O)O)c4ccccc43)n1)CN(C)CC2 (stereo not shown)    477
COc1cc2c(cc1Nc1ncc(Cl)c(N3CC(C(N)=O)c4ccccc43)n1)CN(C)CC2 (stereo not shown)    140
COc1cc2c(cc1Nc1ncc(Cl)c(N3CC(C(=O)O)c4ccccc43)n1)CN(C)CC2 (stereo not shown) [Example 32]    90

Now let's try a different one.
Ask: Field request: JAKs/HPK1 IC50 Ratio, B* | item: "COc1cc2c(cc1Nc1ncc(Cl)c(N3CCc4cc(Br)ccc43)n1)CN(C)CC2"
Reply: 178

* * *

So I've got a bunch of molecules here, and I need their IC50 values.
# TGT: JAK3 (Homo sapiens)
# Construct: purchased Thermo fisher PV3855
# TEST PROTOCOL: JAK3 biochemical assay (ADP-GLO Kinase Assay)
# EXPERIMENTAL CONTEXT: B*: testing performed in a first testing facility; read-out: JAK3 IC50 (nM) Relative, B*

COc1cc2c(cc1Nc1ncc(Cl)c(N3CC(CO)(C(=O)O)c4ccccc43)n1)CN(C)CC2 (centres unmarked)    ≤ 100 nM
CCc1c[nH]c2ncc(-c3ccc(C(N)=O)c(P(C)(C)=O)c3)cc12    > 1000 nM
CCc1c[nH]c2ncc(-c3ccc(C(F)(F)F)c(P(C)(C)=O)c3)cc12    > 1000 nM
COc1cc2c(cc1Nc1ncc(Cl)c(-c3nn(CC(=O)O)c4ccccc34)n1)CN(C)CC2    > 1000 nM
CCc1c[nH]c2ncc(-c3cc(N)cc(P(C)(C)=O)c3)cc12    500 to 1000 nM

Look up IC50 for the entries below, preserving their order.
1. COc1cc2c(cc1Nc1ncc(Cl)c(-n3cc(CC(=O)NCC#N)c4ccccc43)n1)CN(C)CC2
2. CCc1c[nH]c2ncc(-c3ccc(F)c(P(C)(C)=O)c3)cc12

Reply:
1. > 1000 nM
2. > 1000 nM

For each listed entry, give its IC50.
1. COC(=O)C1(C)CN(c2nc(Nc3cc4c(cc3OC)CCN(C)C4)ncc2Cl)c2ccccc21 (centres unmarked)
2. COc1cc2c(cc1Nc1ncc(Cl)c(N3CC(C)(CC(=O)O)c4ccccc43)n1)CN(C)CC2 (single isomer, unassigned) [Example 147]
3. CONC(=O)C1CN(c2nc(Nc3cc4c(cc3OC)CCN(C)C4)ncc2Cl)c2ccccc21 (centres unmarked)

Reply:
1. > 1000 nM
2. > 1000 nM
3. 500 to 1000 nM

Fill in IC50 for each of the 6 molecules listed.
1. COc1cc2c(cc1Nc1ncc(Cl)c(N3CC(CC(=O)O)c4ccccc43)n1)CN(C)CC2 (centres unmarked)
2. COc1cc2c(cc1Nc1ncc(Cl)c(N3CC(C#N)c4ccccc43)n1)CN(C)CC2 (centres unmarked)
3. COc1cc2c(cc1Nc1ncc(Cl)c(N3CC(C)(CC(=O)O)c4ccc(F)cc43)n1)CN(C)CC2 (single isomer, unassigned) [Example 152]
4. COc1cc2c(cc1Nc1ncc(Cl)c(N3CC(C)(C(=O)O)c4ccccc43)n1)CNCC2 (centres unmarked)
5. CCc1c[nH]c2ncc(-c3ccc(NC(C)=O)c(P(C)(C)=O)c3)cc12
6. COC(=O)CC1(C)CN(c2nc(Nc3cc4c(cc3OC)CCN(C)C4)ncc2Cl)c2ccccc21 (centres unmarked)

Reply:
1. 100 to 500 nM
2. ≤ 100 nM
3. 100 to 500 nM
4. ≤ 100 nM
5. 100 to 500 nM
6. > 1000 nM

Quick request: IC50 for each listed item, please.
1. COc1cc2c(cc1Nc1ncc(Cl)c(N3CC(C)(CC(=O)O)c4cc(F)c(F)cc43)n1)CN(C)CC2 (centres unmarked)
2. COc1cc2c(cc1Nc1ncc3ccn(-c4cccnc4C)c3n1)CN(C)CC2
3. CCc1c[nH]c2ncc(-c3ccc(C(=O)OC)c(P(C)(C)=O)c3)cc12

Reply:
1: 100 to 500 nM; 2: 100 to 500 nM; 3: > 1000 nM

For each entry beneath this line, provide reported IC50.
1. COc1cc2c(cc1Nc1ncc(Cl)c(N3CC(C(=O)O)C4(CCOCC4)C3)n1)CN(C)CC2 (centres unmarked)
2. COc1cc2c(cc1Nc1ncc(Cl)c(N3CC(C(=O)O)c4c(OC)cccc43)n1)CN(C)CC2 (centres unmarked)
3. COC(=O)c1cn(-c2nc(Nc3cc4c(cc3OC)CCN(C)C4)ncc2Cl)c2ccccc12
4. COc1nc2c(cc1Nc1ncc(Cl)c(N3CC(C)(CC(=O)O)c4ccccc43)n1)CN(C)CC2 (centres unmarked)

Reply:
1: > 1000 nM; 2: > 1000 nM; 3: > 1000 nM; 4: > 1000 nM

Dear colleague, could you please provide IC50 for the molecules listed below?
1. COc1cc2c(cc1Nc1ncc(Cl)c(N3CC(C(=O)O)C4(CCCC4)C3)n1)CN(C)CC2 (centres unmarked)
2. CCc1c[nH]c2ncc(-c3ccc(C)c(P(C)(C)=O)c3F)cc12
3. COc1cc2c(cc1Nc1ncc(Cl)c(N3CCc4cc(Br)ccc43)n1)CN(C)CC2
4. COc1cc2c(cc1Nc1ncc(Cl)c(N3CC(C)(CO)c4ccccc43)n1)CN(C)CC2 (centres unmarked)

Reply:
1: > 1000 nM; 2: > 1000 nM; 3: > 1000 nM; 4: ≤ 100 nM

Here are 2 molecules. What values of IC50 were reported for them?
1. COc1cc2c(cc1Nc1ncc3cc(C(=O)O)n(-c4ccccc4)c3n1)CN(C)CC2
2. COc1cc2c(cc1Nc1ncc(Cl)c(N3CCc4cc(P(C)(C)=O)ccc43)n1)CN(C)CC2

Reply:
1. > 1000 nM
2. > 1000 nM

Give IC50 for each of the items listed below.
1. COc1cc2c(cc1Nc1ncc(Cl)c(-n3cc(CC(=O)O)c4ccccc43)n1)CN(C)CC2
2. COc1cc2c(cc1Nc1ncc(Cl)c(N3CC(C(=O)O)c4ccc(F)cc43)n1)CN(C)CC2 (centres unmarked)
3. COc1cc2c(cc1Nc1ncc(Cl)c(-n3cc(C4(C(=O)O)CC4)c4ccccc43)n1)CN(C)CC2

Reply:
1: 500 to 1000 nM; 2: 100 to 500 nM; 3: > 1000 nM

The reported numbers originate from patent US12612424B2.
